Experiment: Ability to cross the blood/brain barrier, endothelial cell/astrocyte coculture model
Assay type: in vitro ADME
Conditions: in vitro coculture model, 37° C.; read-out: coefficient of permeability of the blood/brain barrier (Pe) (converted)
Counter-ions that a name gives are not always drawn.
Listing of entries alongside the reported Papp.

Some solved cases for reference:
>>> print(df.to_string())
                                   molecule  property_name            reading
0  COc1ccc(CN2CCN(Cc3ccccc3)CC2)c(OC(=O)[C@@H]2C[C@H]2c2ccccc2)c1OC (relative stereo) [Example 2, dihydrochloride]           Papp  > 16.7 ×10⁻⁶ cm/s
1  COc1ccc(CN2CCNCC2)c(OC)c1OC [trimetazidine, 2,3,4-trimethoxybenzylpiperazine, reference compound]           Papp       7 ×10⁻⁶ cm/s
2  CCN1CCN(Cc2ccc(OC)c(OC)c2OC(=O)[C@H]2C[C@@H]2c2ccccc2)CC1 [Example 19, dihydrochloride]           Papp  > 16.7 ×10⁻⁶ cm/s
3  CCN1CCN(Cc2ccc(OC)c(OC)c2OC(=O)[C@@H]2C[C@H]2c2ccccc2)CC1 (relative stereo) [Example 1]           Papp  > 16.7 ×10⁻⁶ cm/s

Read the next record carefully.
Recall and state the measured Papp for CCN1CCN(Cc2ccc(OC)c(OC)c2OC(=O)[C@@H]2C[C@H]2c2ccccc2)CC1 [Example 17, dihydrochloride] . > 16.7 ×10⁻⁶ cm/s

Values compiled from patent US5849745A.
